# EXPERIMENTAL_SYSTEM: HLA-B*07:02
# ASSAY_EXPLANATION: IEDB peptide-MHC binding, purified MHC/competitive/radioactivity; bounds were set here for any values at or beyond the usual limits of such assays
# STUDY_CONDITIONS: source organism: Homo sapiens
pIC50: −log10 of the molar value.
ASSAY_READOUT: pIC50

a. LPLLALLAL
b. HPRYFNQLST
**Query** Please indicate which entry, a or b , has the lower recorded pIC50 value. Lab note: record the label of whichever item you select.
**Result** b

###

# EXPERIMENTAL_SYSTEM: HLA-B*35:01
# ASSAY_EXPLANATION: IEDB peptide-MHC binding, purified MHC/competitive/radioactivity; bounds were set here for any values at or beyond the usual limits of such assays
# STUDY_CONDITIONS: source organism: Homo sapiens
ASSAY_READOUT: IC50 (µM)
Report as a plain number; the unit µM is understood.

**Query** # get_value(readout='IC50', item= LPLLALLAL )
**Result** 12.3
